# experimentalSystem: human SLC6A19 and TMEM27 (Homo sapiens)
# Construct: expressed in transfected cells
# Sequence (Q695T7 1-634): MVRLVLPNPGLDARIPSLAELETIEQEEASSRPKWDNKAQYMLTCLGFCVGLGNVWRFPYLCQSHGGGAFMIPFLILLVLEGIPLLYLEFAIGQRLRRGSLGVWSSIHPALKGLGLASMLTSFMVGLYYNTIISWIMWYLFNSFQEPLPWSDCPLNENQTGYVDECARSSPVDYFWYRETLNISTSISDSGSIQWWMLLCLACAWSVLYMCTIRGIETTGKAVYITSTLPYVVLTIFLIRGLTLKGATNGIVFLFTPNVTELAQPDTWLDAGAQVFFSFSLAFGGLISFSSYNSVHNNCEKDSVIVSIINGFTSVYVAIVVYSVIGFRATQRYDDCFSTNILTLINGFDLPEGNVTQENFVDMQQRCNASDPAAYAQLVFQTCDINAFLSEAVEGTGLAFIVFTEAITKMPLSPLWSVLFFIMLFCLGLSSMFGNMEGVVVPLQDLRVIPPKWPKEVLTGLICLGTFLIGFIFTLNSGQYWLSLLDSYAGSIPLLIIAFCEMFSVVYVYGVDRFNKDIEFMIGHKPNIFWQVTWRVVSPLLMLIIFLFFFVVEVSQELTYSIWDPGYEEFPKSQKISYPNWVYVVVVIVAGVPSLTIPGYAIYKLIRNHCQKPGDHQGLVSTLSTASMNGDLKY
# Sequence (Q9HBJ8 15-222 partner): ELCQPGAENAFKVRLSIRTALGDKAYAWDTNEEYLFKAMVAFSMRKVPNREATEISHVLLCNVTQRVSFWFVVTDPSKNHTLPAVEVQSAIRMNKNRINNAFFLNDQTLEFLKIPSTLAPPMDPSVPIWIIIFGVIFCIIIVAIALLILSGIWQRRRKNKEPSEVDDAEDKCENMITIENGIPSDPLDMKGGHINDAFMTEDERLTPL
# procedureSummary: Radiolabelled (3H) leucine uptake in CHO cells with doxycycline-inducible expression of human SLC6A19 and TMEM27 (Example B-1)
# Assay type: cell-based
# measurementConditions: CHO cells with doxycycline-inducible expression of human SLC6A19 and TMEM27, read-out: SLC6A19_Radioligand Uptake Assay IC50
pIC50: −log10 of the molar value.
Mark not met for pIC50 values under 6, and met for everything at or above.

Consider the worked cases shown below.
compound=O=C(NCc1cc2cc(F)c(NCc3ccon3)cc2[nH]1)N1CCCC1 experimentalsystem="human SLC6A19 and TMEM27 (Homo sapiens)" classlabel=met
compound=Cc1cc(COc2cc3[nH]c(CNC(=O)C4(F)CC4)cc3cc2F)on1 experimentalsystem="human SLC6A19 and TMEM27 (Homo sapiens)" classlabel=met
compound=O=C(NCc1cc2cc(Cl)c(OCc3cscn3)cc2[nH]1)C1CC1 experimentalsystem="human SLC6A19 and TMEM27 (Homo sapiens)" classlabel=met
compound=CC1(C(=O)NCc2cc3cc(Cl)c(OCc4ccon4)cc3[nH]2)CC1 experimentalsystem="human SLC6A19 and TMEM27 (Homo sapiens)" classlabel=met
compound="Cc1cc(COc2cc3[nH]c(CNC(=O)C4(F)CCOC4)cc3cc2Cl)on1 (stereo not shown)" experimentalsystem="human SLC6A19 and TMEM27 (Homo sapiens)" classlabel=met

Is pIC50 at least 6? Consider CC1(C(=O)NCc2cc3cc(Cl)c(OCc4c(F)ccnc4Cl)cc3[nH]2)CC1
not met

pIC50 >= 6 for CC1(C(=O)NCc2cc3cc(Cl)c(OCC4CCC4)cc3[nH]2)CC1 ?
met

Quick check, pIC50 >= 6? [2H]C([2H])([2H])C(=O)NCc1cc2cc(Cl)c(OCc3cc(C)no3)cc2[nH]1
met
